# maps each entry to its MIC
tested on: Staphylococcus aureus; assay: Antibacterial activity against Staphylococcus aureus; type: functional
readout.kind: MIC (µM)

Nc1n[nH]c2nc(-c3ccccc3)nc(-c3ccc(Cl)cc3)c12 : 190
Nc1ccc(-c2nc(-c3ccccc3)nc3[nH]nc(N)c23)cc1 : 34.5
COc1ccc(-c2nc(-c3ccccc3)nc3[nH]nc(N)c23)cc1 : 4.2
Nc1n[nH]c2nc(-c3ccccc3)nc(-c3ccc(Br)cc3)c12 : 3.8

---

system: Daoy; experiment: Cytotoxicity against human DaOY cells after 48 hrs by MTS assay; assay type: functional, cell-based
pIC50: −log10 of the molar value.
readout.kind: pIC50

Fc1cccc(CNc2ncnc3c2cnn3CC(Cl)c2ccc(Br)cc2)c1 (stereo not drawn) : 5.46
CCCCNc1ncnc2c1cnn2CC(Cl)c1ccccc1 (stereo not drawn) : 5.20
Fc1ccc(CNc2ncnc3c2cnn3CC(Cl)c2ccc(Cl)cc2)cc1 (stereo not drawn) : 5.76
